I'd be grateful if you could share measured TGI for these entries.
test system: UACC-257 melanoma; experiment: NCI tumour cell line growth inhibition, 48 h

Study these solved cases before continuing.
| Molecule | TGI |
| --- | --- |
| COc1cc(/C=N/Nc2ncnc3c2cnn3Cc2ccccc2)ccc1O | > 25 µM |
| Nc1nc(NCC2(CO)CC(CCc3ccccc3)C2)cc(=O)[nH]1 (stereo unspecified) | > 100 µM |
| O=[N+]([O-])c1ccc(NN=C2c3ccccc3Cc3ccccc32)c([N+](=O)[O-])c1 | > 100 µM |
| O=C(Oc1ccc(OC(Oc2ccccc2)c2ccccc2)cc1)c1ccccc1 (stereo unspecified) | > 31.6 µM |
| CNC(=O)OCc1cc2ccncc2c2c1[nH]c1ccccc12 | > 100 µM |

Okay, now this molecule:
Missing value: TGI, UACC-257 melanoma, entry CCCCCCCSCC1OC(n2cnc3c(N)ncnc32)C(O)C1O (stereo unspecified) . Fill in?
56.9 µM

src = PubChem BioAssay (NCI)
